# experiment: yeast display, Sf9 membrane polyspecificity reagent, FACS + sequencing; frameworks hold sequencing errors
parameter: polyreactivity (PSR sort gate)

Example cases with answers are listed next.
{"residue.codes": "QVQLVESGGGLVQAGGSLRLSCAASGSILYHYAMGWYRQAPGKERELVAGISWRGGSTYYADSVKGRFTISRDNAMNTVYLQMNSLKPEDTAVYYCATLRYPYRFYAFQYYYWGQGTQVTVSS", "parameter": "polyreactivity (PSR sort gate)", "measured.value": "low polyreactivity"}
{"residue.codes": "QVQLVESGGGLVQAGGSLRLSCAASGSIFFYYAMGRYRQARGKERQLVAAISYSDGTTYYADSVKGRFTISRDNAKNTVYLQMNSLKPEDTAVYYCAADLWVGLVTLWDGYVQYDYWGQGTQVTVSS", "parameter": "polyreactivity (PSR sort gate)", "measured.value": "low polyreactivity"}
{"residue.codes": "QVQLVESVGGLVQAGGSLRLSCAASGRTFRYNAMGWYRQAPGKERELVASITSGGSTNYADSVKGRFTISRDNAKNTVYLQMNSLKPEDTAVYYCAAEAYFWQYERDYWGQGTQVTLSS", "parameter": "polyreactivity (PSR sort gate)", "measured.value": "low polyreactivity"}
{"residue.codes": "QVQLVESGGGLVQAGGSLRLSCAASGSIIRHNVMVWYRQAPGKERELVAAISGGGGRTYYADSVKGRFTISRDNAKNTVSLQMNRLKPEDTAVYYCNAYVGLSEGDYWGQGTQVTVSS", "parameter": "polyreactivity (PSR sort gate)", "measured.value": "high polyreactivity"}

Note: attention shifts to another entry.
Challenge: Check the records and state polyreactivity (PSR sort gate) for QVQLVESGGGLVQAGGSLRLSCAASGSTLTYNAMGWYRQAPGKERELVAAIDWDGDTTYYADSVKGRFTISRDNAKNTVYLQMNSLKPEDTAVYYCAAEFYSLGKAIYEYWGQGTQVTVSS
Response given: high polyreactivity

====

# experiment: yeast display, Sf9 membrane polyspecificity reagent, FACS + sequencing; frameworks hold sequencing errors
parameter: polyreactivity (PSR sort gate)

// worked examples, polyreactivity (PSR sort gate) included
{"residue.codes": "QVQLVEAGGGLVQAGGSLRLSCAASGSTFPYNARGWYSQAPGKDRELVAAMTSAGGTNYADSVKGRFTISRDNATNTVYLQMNSLKPEDTAVYYCAADGSGYYDWYYYWGQGTQVTVSS", "polyreactivity (PSR sort gate)": "low polyreactivity"}
{"residue.codes": "QVQLVESGGGLVQAGGSLRLSCAASGRIFHNYAMGWYRQAPGKERELVAAISSSGGRTTYADSVKGRFTISRDYAKNTVYLQMNSLKPEDTAVDYCAKRYPHIGDYWGEGTQVTVSS", "polyreactivity (PSR sort gate)": "high polyreactivity"}
{"residue.codes": "QDQLVESGGGLVQAGGSLRLSCAASGRNFSFNPMGLYRQAPGKERELVATIRTDGTTNYADSVKGRFTISRDNAKNTVYVQMNSLKPEDTAVYYCAADSAYHRRRMYYWGQGTQVTVSS", "polyreactivity (PSR sort gate)": "high polyreactivity"}
{"residue.codes": "QVQLVESGGGIVQAGGSLRLSCAASGYTIDSYGMGWYRQAPGKERELVAAIDWSGGSTYYADSVKGRFTISRDNAKNTVYLQMNSLKPEDTAVYYCAARRGLRLFAYRHGYWGQGTQVTVSS", "polyreactivity (PSR sort gate)": "low polyreactivity"}

Continue with the sequence presented below.
Challenge: Give reported polyreactivity (PSR sort gate) value for QVQLVESGGGLVQAGGSLRLSCAASGFTLRANAMGWYRQAPGKERELVAAITRTGGRTYYADSVKGRFTISRDNAKNTVYLQMNSLKPEDTAVYYCAADHGPSKWYDYWGQGTEVTVSS
Response given: low polyreactivity
